Biological target: WEE1 (Homo sapiens, UniProt P30291+Q96SW2)
Construct: C-terminal ePL-tagged (DiscoverX, Fremont, CA) full-length WEE1 expression construct; expressed in transfected cells; host or cells: LentiX-HEK293T (Invitrogen), lentiviral transduction; co-expressing GSPT1-GN (G576N, lacking the first 158 amino acids)
Test: WEE1-ePL degradation assay (LentiX-WEE1-ePL-GSPT1-ND cells, InCELL Hunter luminescence, 4 h)
Format: cell-based
Details: 293T-LentiX WEE1-ePL cells, read-out: 293T-LentiX WEE1-ePL Degradation 4 hr (EC50)

[
  {
    "Molecule": "O=C1CCC(N2Cc3cc(O[C@H]4CCN(Cc5ccc6nc(N7C[C@H]8CC[C@@H](C7)O8)ccc6c5)C4)ccc3C2=O)C(=O)N1 (stereo partly drawn)",
    "DC50 [nM]": 6.5
  },
  {
    "Molecule": "O=C1CCC(N2Cc3cc(O[C@H]4CCN(Cc5ccc6nc(N7C[C@H]8COC[C@H]8C7)ncc6c5)C4)ccc3C2=O)C(=O)N1 (stereo partly drawn)",
    "DC50 [nM]": 14
  },
  {
    "Molecule": "O=C1CCC(N2Cc3cc(O[C@H]4CCN(Cc5ccc6nc(N7CC[C@]78CCOC8)ccc6c5)C4)ccc3C2=O)C(=O)N1 (stereo partly drawn)",
    "DC50 [nM]": 5.38
  },
  {
    "Molecule": "C[C@@H]1CN(Cc2ccc3nc([C@@H]4CCOC4)ccc3c2)C[C@H]1Oc1ccc2c(c1)CN(C1CCC(=O)NC1=O)C2=O (stereo partly drawn)",
    "DC50 [nM]": 1.95
  },
  {
    "Molecule": "O=C1CCC(N2Cc3cc(O[C@H]4CCN(Cc5ccc6nc(N7C[C@H]8CC[C@@H](C7)O8)ncc6c5)C4)ccc3C2=O)C(=O)N1 (stereo partly drawn)",
    "DC50 [nM]": 45.9
  },
  {
    "Molecule": "CO[C@H]1CC[C@@H](Nc2ccc3cc(CN4CC[C@H](Oc5ccc6c(c5)CN(C5CCC(=O)NC5=O)C6=O)C4)ccc3n2)CC1 (stereo partly drawn)",
    "DC50 [nM]": 6.38
  },
  {
    "Molecule": "Cc1cncc(CN2CC[C@H](Oc3ccc4c(c3)CN(C3CCC(=O)NC3=O)C4=O)C2)c1C (stereo partly drawn)",
    "DC50 [nM]": 40.7
  },
  {
    "Molecule": "CO[C@H]1CC[C@](C)(Nc2ccc3cc(CN4CC[C@H](Oc5ccc6c(c5)CN(C5CCC(=O)NC5=O)C6=O)C4)ccc3n2)CC1 (stereo partly drawn)",
    "DC50 [nM]": 5.36
  },
  {
    "Molecule": "O=C1CC[C@H](N2Cc3cc(O[C@H]4CCN(Cc5ccc6nc([C@H]7CCOC7)ncc6c5)C4)ccc3C2=O)C(=O)N1",
    "DC50 [nM]": 17.8
  },
  {
    "Molecule": "Cc1ccc2cc(CN3CC[C@H](Oc4ccc5c(c4)CN(C4(C)CCC(=O)NC4=O)C5=O)C3)ccc2n1 (stereo partly drawn)",
    "DC50 [nM]": 5070
  },
  {
    "Molecule": "CC(C)OCc1ccc2cc(CN3CC[C@H](Oc4ccc5c(c4)CN(C4CCC(=O)NC4=O)C5=O)C3)ccc2n1 (stereo partly drawn)",
    "DC50 [nM]": 6.51
  },
  {
    "Molecule": "COC[C@@H]1CN(Cc2ccc3nc([C@@H]4CCOC(C)(C)C4)ccc3c2)C[C@H]1Oc1ccc2c(c1)CN([C@H]1CCC(=O)NC1=O)C2=O",
    "DC50 [nM]": 0.726
  },
  {
    "Molecule": "O=C1CCC(N2Cc3cc(O[C@H]4CCN(Cc5ccc6nc(Oc7ccccn7)ccc6c5)C4)ccc3C2=O)C(=O)N1 (stereo partly drawn)",
    "DC50 [nM]": 6.39
  },
  {
    "Molecule": "N#Cc1ncc2cc(CN3CC[C@H](Oc4ccc5c(c4)CN(C4CCC(=O)NC4=O)C5=O)C3)ccc2n1 (stereo partly drawn)",
    "DC50 [nM]": 12.1
  },
  {
    "Molecule": "O=C1CCC(N2Cc3cc(O[C@H]4CCN(Cc5ccc6nc(N7C[C@@H]8C9CCC(O9)[C@@H]8C7)ncc6c5)C4)ccc3C2=O)C(=O)N1 (stereo partly drawn)",
    "DC50 [nM]": 9.25
  }
]
